ASSAY: total protein half-life in vivo (active degradation + dilution); higher = more stable protein
CONDITIONS: wild type E. coli NCM3722; growth: P-lim chemostat; doubling time 6 h
Would you mind telling me the reported total protein half-life in vivo of each entry?
One number for each entry, in h.

{"ITEM_SEQUENCE": "MSEQLTDQVLVERVQKGDQKAFNLLVVRYQHKVASLVSRYVPSGDVPDVVQEAFIKAYRALDSFRGDSAFYTWLYRIAVNTAKNYLVAQGRRPPSSDVDAIEAENFESGGALKEISNPENLMLSEELRQIVFRTIESLPEDLRMAITLRELDGLSYEEIAAIMDCPVGTVRSRIFRAREAIDNKVQPLIRR [P0AGB6]", "total protein half-life in vivo [h]": 5.63}

// next item, total protein half-life in vivo requested
Data request, read-out total protein half-life in vivo, for MSHLAELVASAKAAISQASDVAALDNVRVEYLGKKGHLTLQMTTLRELPPEERPAAGAVINEAKEQVQQALNARKAELESAALNARLAAETIDVSLPGRRIENGGLHPVTRTIDRIESFFGELGFTVATGPEIEDDYHNFDALNIPGHHPARADHDTFWFDTTRLLRTQTSGVQIRTMKAQQPPIRIIAPGRVYRNDYDQTHTPMFHQMEGLIVDTNISFTNLKGTLHDFLRNFFEEDLQIRFRPSYFPFTEPSAEVDVMGKNGKWLEVLGCGMVHPNVLRNVGIDPEVYSGFAFGMGMERLTMLRYGVTDLRSFFENDLRFLKQFK
6.28

This collection of values is drawn from the supplement of paper PMC11246515.
